experimentalTarget: human P2X7 (Homo sapiens (Human))
Sequence (Q99572 whole entry): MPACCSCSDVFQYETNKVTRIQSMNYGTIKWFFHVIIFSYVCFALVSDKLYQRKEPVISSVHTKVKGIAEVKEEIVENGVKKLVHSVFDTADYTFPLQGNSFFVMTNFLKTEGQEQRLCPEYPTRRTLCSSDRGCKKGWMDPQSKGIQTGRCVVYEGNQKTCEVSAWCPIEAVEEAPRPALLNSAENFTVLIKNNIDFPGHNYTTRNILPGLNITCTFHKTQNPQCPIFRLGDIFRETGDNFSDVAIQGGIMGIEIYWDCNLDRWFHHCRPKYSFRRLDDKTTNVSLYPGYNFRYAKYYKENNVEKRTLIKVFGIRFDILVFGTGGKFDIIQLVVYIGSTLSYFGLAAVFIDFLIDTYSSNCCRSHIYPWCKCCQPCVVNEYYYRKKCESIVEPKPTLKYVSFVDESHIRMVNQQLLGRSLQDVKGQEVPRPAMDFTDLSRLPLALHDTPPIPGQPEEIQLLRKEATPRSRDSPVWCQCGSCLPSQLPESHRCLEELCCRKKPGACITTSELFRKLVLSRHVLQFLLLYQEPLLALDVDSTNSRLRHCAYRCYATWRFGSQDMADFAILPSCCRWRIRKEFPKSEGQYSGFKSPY
protocolNotes: P2X7 antagonism in human whole blood (IL-1β release after LPS + Bz-ATP, ELISA)
Format: cell-based
conditions: LPS 30 ng/ml + 1 mM Bz-ATP
experimentalEndpoint: pIC50
Scale: negative log10 of molar concentration, which is what pIC50 denotes.

Value of measured pIC50 for the entry Cc1ccnc(-n2nnc3c2CCN(C(=O)c2cccc(C(F)(F)F)c2Cl)[C@@H]3C)n1 (single isomer, unassigned) [Example 235] : 7.77

* * *

Recorded IC50, one value per entry.
experimentalTarget: rat P2X7 (Rattus norvegicus (Rat), UniProt Q64663)
Sequence (Q64663 whole entry): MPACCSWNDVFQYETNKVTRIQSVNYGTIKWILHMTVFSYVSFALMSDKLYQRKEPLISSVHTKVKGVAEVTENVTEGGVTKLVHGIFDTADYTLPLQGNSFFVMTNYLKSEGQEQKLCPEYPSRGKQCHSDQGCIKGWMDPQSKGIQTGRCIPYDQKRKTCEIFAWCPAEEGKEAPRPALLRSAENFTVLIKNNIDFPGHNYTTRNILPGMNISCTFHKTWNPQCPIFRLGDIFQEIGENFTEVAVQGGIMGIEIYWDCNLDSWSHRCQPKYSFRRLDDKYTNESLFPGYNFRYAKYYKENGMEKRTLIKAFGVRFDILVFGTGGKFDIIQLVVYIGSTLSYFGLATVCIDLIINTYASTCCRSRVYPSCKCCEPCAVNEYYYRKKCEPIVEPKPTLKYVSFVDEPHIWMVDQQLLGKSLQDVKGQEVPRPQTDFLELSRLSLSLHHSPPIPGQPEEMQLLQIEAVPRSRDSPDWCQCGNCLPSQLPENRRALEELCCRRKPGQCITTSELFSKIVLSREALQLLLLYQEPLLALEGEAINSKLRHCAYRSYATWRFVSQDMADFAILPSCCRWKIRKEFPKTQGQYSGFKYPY
protocolNotes: Ca2+ flux (FLIPR) in 1321N1 cells expressing recombinant rat P2X7;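 also: Calcium-4 dye fluorescence change read 180 s after agonist addition, with cells preincubated 30 min with compound and dye in 96-well plates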
Format: cell-based
conditions: 1321N1 cells, recombinant rat P2X7, 250 μM BzATP

Illustrative cases are given below, each with its answer.
{"columns": ["compound", "recordedValue"],
 "data": [
  ["Cc1cccc(-n2nnc3c2CCN(C(=O)c2cccc(C(F)(F)F)c2F)[C@H]3C)n1 (single isomer, unassigned)", "0.161 µM"],
  ["Cc1cc(-n2nnc3c2CCN(C(=O)c2ccc(Cl)c(C(F)(F)F)c2)C3C)ncc1F (stereo not drawn)", "5.79 µM"],
  ["CC1c2ncn(-c3cnccn3)c2CCN1C(=O)c1cccc(C(F)(F)F)c1F (stereo not drawn)", "0.122 µM"],
  ["CCOC(=O)C1c2ncn(-c3ccccc3)c2CCN1C(=O)c1cccc(Cl)c1Cl (stereo not drawn)", "2.81 µM"],
  ["Cc1cc(-n2nnc3c2CCN(C(=O)c2cc(Cl)cc(C(F)(F)F)c2)C3C)ncc1F (stereo not drawn)", "> 10 µM"]
]}

Next up:
Value of measured IC50 for the entry Cc1cc(-n2nnc3c2CCN(C(=O)c2cc(Cl)cc(C(F)(F)F)c2)[C@H]3C)ncc1F (single isomer, unassigned) : > 10 µM
